- System: HIV-1
- Protocol notes: MAGI antiviral assay in P4R5 indicator cells
- Type: cell-based
- Assay context: Human immunodeficiency virus 1, read-out: MAGI Antiviral EC50
Below, each entry is listed alongside its reported EC50.

Reference set, count: 2
CCN1CCc2c(sc3[nH]c(=O)n(O)c(=O)c23)C1 [Compound 11k] ... > 20 µM
O=c1[nH]c2sc3c(c2c(=O)n1O)CCN(Cc1ccccc1)C3 [Compound 11m] ... > 20 µM

(Q) Which EC50 value belongs to O=c1[nH]c2sc3c(c2c(=O)n1O)CCNC3 [Compound 11l] ?
(A) > 20 µM

====

Below, each entry is listed alongside its reported CC50 at 72 h.
- Protocol notes: Cytotoxicity in cell-based MAGI assay
- Assay context: human, P4R5 indicator cells (MAGI assay)

Reference set, count: 2
O=c1[nH]c2sc3c(c2c(=O)n1O)CCN(Cc1ccccc1)C3 [Compound 11m] ... > 100 µM
O=c1[nH]c2sc3c(c2c(=O)n1O)CCNC3 [Compound 11l] ... > 100 µM

Next up:
(Q) Which CC50 at 72 h value belongs to CCN1CCc2c(sc3[nH]c(=O)n(O)c(=O)c23)C1 [Compound 11k] ?
(A) > 100 µM

====

HIV integrase (Human immunodeficiency virus type 1 group M subtype B) measurements of pIC50, listed per entry.
Quick note: pIC50 means taking -log10 of the concentration in moles per liter.

O=c1[nH]c2sc3c(c2c(=O)n1O)CCN(Cc1ccccc1)C3 [Compound 11m] ... 5.08

Next up:
(Q) Which pIC50 value belongs to O=c1[nH]c2sc3c(c2c(=O)n1O)CCNC3 [Compound 11l] ?
(A) 4.77

====

Below, each entry is listed alongside its reported IC50.
- Assayed system: HIV RT-associated RNase H (Human immunodeficiency virus type 1 group M subtype B, UniProt P03366)
Value expressed in nM; do not type the unit.

Cc1sc2[nH]c(=O)n(O)c(=O)c2c1C [Compound 11g] ... 100
Cc1csc2[nH]c(=O)n(O)c(=O)c12 [Compound 11f] ... 100

(Q) Which IC50 value belongs to O=c1[nH]c2cc(-c3ccccc3)sc2c(=O)n1O [Compound 10a] ?
(A) 100

(Q) Which IC50 value belongs to O=c1[nH]c2sc3c(c2c(=O)n1O)CCN(Cc1ccccc1)C3 [Compound 11m] ?
(A) 100

(Q) Which IC50 value belongs to O=c1[nH]c2scc(-c3ccccc3)c2c(=O)n1O [Compound 11c] ?
(A) 100

(Q) Which IC50 value belongs to Cc1c(C(=O)O)sc2[nH]c(=O)n(O)c(=O)c12 [Compound 11h] ?
(A) 100

(Q) Which IC50 value belongs to CCN1CCc2c(sc3[nH]c(=O)n(O)c(=O)c23)C1 [Compound 11k] ?
(A) 200

(Q) Which IC50 value belongs to O=c1[nH]c2sc3c(c2c(=O)n1O)CCNC3 [Compound 11l] ?
(A) 300
